tested on: SGC-7901; test: cells; conditions: Homo sapiens, SGC-7901, 48 h
Description: Cytotoxicity against human SGC7901 cells after 48 hrs by MTT assay
pIC50: −log10 of the molar value.
quantity: pIC50

[[record]]
molecule = "CCCCC(CC)C(=O)Oc1cc(OC)ccc1C(=O)c1ccc(=O)n(-c2ccccc2C)c1 (centres undefined)"
observed_measurement = 5.83

[[record]]
molecule = "COc1ccc(Cn2cc(COc3cc(OC)ccc3C(=O)c3ccc(=O)n(-c4ccccc4C)c3)nn2)cc1"
observed_measurement = 5.89

[[record]]
molecule = "COc1ccc(C(=O)c2ccc(=O)n(-c3ccccc3C)c2)c(OCc2cn(Cc3ccc(Cl)cc3Cl)nn2)c1"
observed_measurement = 6.39

[[record]]
molecule = "COc1ccc(C(=O)c2ccc(=O)n(-c3ccccc3C)c2)c(OCc2cn(Cc3cccc(O[N+](=O)[O-])c3)nn2)c1"
observed_measurement = 6.26


---

system: SGC-7901; test: cells; conditions: Homo sapiens, SGC-7901, 48 h
pIC50: −log10 of the molar value.
Reported pIC50 values are given for each entry in this list.
quantity: pIC50

[[record]]
compound = "COc1ccc(C(=O)C2=CC(c3ccccc3C)C(=O)C=C2)c(OCc2cn(Cc3ccc(C(C)(C)C)cc3)nn2)c1 (centres undefined)"
study_system = "SGC-7901"
value_qualifier = "="
observed_measurement = 5.45

[[record]]
compound = "COc1ccc(C(=O)c2ccc(=O)n(-c3ccccc3C)c2)c(OC(C)=O)c1"
study_system = "SGC-7901"
value_qualifier = "="
observed_measurement = 5.21

[[record]]
compound = "COc1ccc(C(=O)c2ccc(=O)n(-c3ccccc3C)c2)c(OCc2cn(Cc3ccccc3F)nn2)c1"
study_system = "SGC-7901"
value_qualifier = "<"
observed_measurement = 4.52

[[record]]
compound = "COc1ccc(C(=O)c2ccc(=O)n(-c3ccccc3C)c2)c(OC(=O)Cc2ccccc2Cl)c1"
study_system = "SGC-7901"
value_qualifier = "="
observed_measurement = 5.84

[[record]]
compound = "CCCOC(=O)Oc1cc(OC)ccc1C(=O)c1ccc(=O)n(-c2ccccc2C)c1"
study_system = "SGC-7901"
value_qualifier = "="
observed_measurement = 5.38

[[record]]
compound = "COc1ccc(C(=O)c2ccc(=O)n(-c3ccccc3C)c2)c(OCc2cn(Cc3ccccc3Cl)nn2)c1"
study_system = "SGC-7901"
value_qualifier = "<"
observed_measurement = 4.52

[[record]]
compound = "COc1ccc(C(=O)c2ccc(=O)n(-c3ccccc3C)c2)c(OCc2cn(Cc3ccccc3C#N)nn2)c1"
study_system = "SGC-7901"
value_qualifier = "<"
observed_measurement = 4.52

[[record]]
compound = "COc1ccc(C(=O)c2ccc(=O)n(-c3ccccc3C)c2)c(OCc2cn(Cc3ccccc3C)nn2)c1"
study_system = "SGC-7901"
value_qualifier = "<"
observed_measurement = 4.52

[[record]]
compound = "C#CCOc1cc(OC)ccc1C(=O)c1ccc(=O)n(-c2ccccc2C)c1"
study_system = "SGC-7901"
value_qualifier = "="
observed_measurement = 5.16

[[record]]
compound = "COc1ccc(C(=O)c2ccc(=O)n(-c3ccccc3C)c2)c(OC(=O)c2ccc(F)cc2)c1"
study_system = "SGC-7901"
value_qualifier = "="
observed_measurement = 5.44

[[record]]
compound = "COc1ccc(C(=O)c2ccc(=O)n(-c3ccccc3C)c2)c(OCc2cn(Cc3ccc(C)cc3)nn2)c1"
study_system = "SGC-7901"
value_qualifier = "="
observed_measurement = 5.26

[[record]]
compound = "COc1ccc(C(=O)c2ccc(=O)n(-c3ccccc3C)c2)c(OCc2cn(Cc3cccc(Br)c3)nn2)c1"
study_system = "SGC-7901"
value_qualifier = "="
observed_measurement = 5.25

[[record]]
compound = "COc1ccc(C(=O)c2ccc(=O)n(-c3ccccc3C)c2)c(OCc2cn(Cc3ccc(Cl)cc3)nn2)c1"
study_system = "SGC-7901"
value_qualifier = "="
observed_measurement = 5.96

[[record]]
compound = "COc1ccc(C(=O)c2ccc(=O)n(-c3ccccc3C)c2)c(OC(=O)c2cc([N+](=O)[O-])cc([N+](=O)[O-])c2)c1"
study_system = "SGC-7901"
value_qualifier = "="
observed_measurement = 5.61

[[record]]
compound = "COc1ccc(C(=O)c2ccc(=O)n(-c3ccccc3C)c2)c(OCc2cn(Cc3ccccc3Br)nn2)c1"
study_system = "SGC-7901"
value_qualifier = "="
observed_measurement = 5.91

[[record]]
compound = "COc1ccc(C(=O)c2ccc(=O)n(-c3ccccc3C)c2)c(OC(=O)c2ccc(C)cc2)c1"
study_system = "SGC-7901"
value_qualifier = "="
observed_measurement = 5.40

[[record]]
compound = "COc1ccc(C(=O)c2ccc(=O)n(-c3ccccc3C)c2)c(OC(=O)OCc2ccccc2)c1"
study_system = "SGC-7901"
value_qualifier = "="
observed_measurement = 6.16

[[record]]
compound = "CCOC(=O)Oc1cc(OC)ccc1C(=O)c1ccc(=O)n(-c2ccccc2C)c1"
study_system = "SGC-7901"
value_qualifier = "="
observed_measurement = 5.47

[[record]]
compound = "COc1ccc(C(=O)c2ccc(=O)n(-c3ccccc3C)c2)c(OCc2cn(Cc3ccc(F)cc3)nn2)c1"
study_system = "SGC-7901"
value_qualifier = "="
observed_measurement = 6.72

[[record]]
compound = "COc1ccc(C(=O)c2ccc(=O)n(-c3ccccc3C)c2)c(OCc2cn(Cc3cccc(F)c3)nn2)c1"
study_system = "SGC-7901"
value_qualifier = "<"
observed_measurement = 4.52

[[record]]
compound = "COc1ccc(C(=O)c2ccc(=O)n(-c3ccccc3C)c2)c(OC(=O)c2ccccc2)c1"
study_system = "SGC-7901"
value_qualifier = "="
observed_measurement = 5.85

[[record]]
compound = "COc1ccc(C(=O)c2ccc(=O)n(-c3ccccc3C)c2)c(OCc2cn(Cc3cccc(Cl)c3)nn2)c1"
study_system = "SGC-7901"
value_qualifier = "<"
observed_measurement = 4.52

[[record]]
compound = "COc1ccc(C(=O)c2ccc(=O)n(-c3ccccc3C)c2)c(OCc2cn(Cc3ccc(Br)cc3)nn2)c1"
study_system = "SGC-7901"
value_qualifier = "="
observed_measurement = 5.64

[[record]]
compound = "COc1ccc(C(=O)c2ccc(=O)n(-c3ccccc3C)c2)c(OCc2cn(Cc3cccc(C)c3)nn2)c1"
study_system = "SGC-7901"
value_qualifier = "<"
observed_measurement = 4.52

